target: 4'-phosphopantetheinyl transferase ffp (Bacillus subtilis) (UniProt Q9F4F7); assay: qHTS Assay for Inhibitors of Bacillus subtilis Sfp phosphopantetheinyl transferase (PPTase); details: Biochemical Sfp PPTase activity;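 also: the enzyme is Sfp with the accession as filed and its product quenches rhodamine fluorescence; 0% = enzyme reaction without inhibitor and -100% = no enzyme wells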
Hit rate of the full screen: of about 310,000 compounds, about 11,000 (3.5%) were called active. About 4% were inconclusive and are not listed. Only a selection was taken, and actives are over-represented in it overall.
reported_endpoint: largest response in the series, negative = inhibition (%)
Answers are plain numbers, in %.

O=Cc1cn(-c2ccccc2)nc1-c1ccccn1	19.4

Hi, could you look up largest response in the series, negative = inhibition for each item in my list?
1. COc1ccccc1N1CCN(C(=O)c2ccc(NC3=NC4CS(=O)(=O)CC4S3)cc2)CC1 (stereo unspecified)
2. CCOc1ccc2[nH]c(=O)c(CN(CCCO)S(=O)(=O)c3ccc(F)cc3)cc2c1
3. Cc1ccccc1NC(=O)C1CCCN(C(=O)NCc2ccccc2)C1 (stereo unspecified)
4. Cc1ccc2nc(-c3ccc(Br)cc3)cn2c1
5. COc1ccc(CN2CCNC(=O)C2CC(=O)NCc2cn[nH]c2-c2ccccc2)c(F)c1 (stereo unspecified)
6. COc1ccc(NC(=O)c2sc3nc(C)nc(N4CCN(c5ccccn5)CC4)c3c2C)c(OC)c1

1: 11.2; 2: 2.06; 3: -0.998; 4: 17; 5: 15.4; 6: -8.26
